Target: CaMKII kinase domain K43M/D136N mutant (Drosophila, UniProt Q00168 1-283, K43M | D136N)
Sequence (Q00168 1-283 K43M/D136N): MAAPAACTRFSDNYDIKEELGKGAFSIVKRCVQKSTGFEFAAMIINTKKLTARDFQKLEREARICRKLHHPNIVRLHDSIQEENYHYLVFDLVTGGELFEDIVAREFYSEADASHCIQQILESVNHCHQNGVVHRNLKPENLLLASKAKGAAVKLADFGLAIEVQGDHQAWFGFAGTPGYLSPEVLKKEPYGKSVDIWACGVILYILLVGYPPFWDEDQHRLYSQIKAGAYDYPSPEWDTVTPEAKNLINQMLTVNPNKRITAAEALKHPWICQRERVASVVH
Assay: ITC
pKd: −log10 of the molar value.

binder	pKd
VFPKAPKLQANQAKLARQDTIDEGGEVD (domain or fragment, UniProt Q02280 768-795, looked up)	6.76
